Class definitions on flash point: low group = under -20 °C, middle group = from -20 °C up to 50 °C, high group = 50 °C and over

Solved entries (count: 6):
compound: CN(C)CC1CCCCC1 [N,N-dimethylcyclohexanemethylamine]
cat: middle group

compound: CCCC(=O)OC [methyl butyrate]
cat: middle group

compound: C1CCCCCCCCC1 [cyclodecane]
cat: high group

compound: O=C1OCCO1 [ethylene carbonate]
cat: high group

compound: CCC(C)SC(C)CC (configuration not stated) [s-butyl sulfide]
cat: middle group

compound: CCCCCC(=O)CCCCC [6-undecanone]
cat: high group

Q: Please classify: CCC=C(C)C [2-methyl-2-pentene]
A: low group

Q: Query C=C=C [1,2-propadiene] next
A: low group

Q: What do you have for CCC(C)C(C)O (configuration not stated) [3-methyl-2-pentanol] ?
A: middle group

Q: What do you have for C=CC(C)(C)C [3,3-dimethyl-1-butene] ?
A: low group

Q: Next entry: C1=COCC1 [2,3-dihydrofuran]
A: low group

* * *

Item-by-item account of flash point
Report the figure in °C without appending any unit label.

compound: Cl[SiH](Cl)c1ccccc1 [Phenyldichlorosilane]
recorded_number: 60
--
compound: C=C[Si]1(C)[Si](C)(C=C)[Si](C)(C=C)[Si]1(C)C=C (configuration not stated) [Tetramethyltetravinylcyclotetrasilane]
recorded_number: 112
--
compound: C[SiH](C)c1ccccc1 [Phenyldimethylsilane]
recorded_number: 38
--
compound: CC[Si](Cl)(Cl)Cl [Ethyltrichlorosilane]
recorded_number: 22
--
compound: C[SiH](Cl)Cl [Methyldichlorosilane]
recorded_number: -32

Q: Which flash point value belongs to C[Si](Cl)(Cl)CCCCl [3-Chloropropylmethyldichlorosilane] ?
A: 86

Q: Then CN(C)[Si](C)(C)C [(N,N-Dimethylamino)trimethylsilane] ?
A: -19

* * *

endpoint_name: flash point

Q: # get_value(readout='flash point', item= Cc1ccccc1C#N [2-methylbenzonitrile] )
A: 84.00 °C

Q: Can you handle Cc1cc(O)c(C(C)(C)C)cc1Sc1cc(C(C)(C)C)c(O)cc1C next?
A: 216.00 °C

Q: Moving on to the next compound: C=Cc1ccccc1C=C [1,2-bis(ethenyl)benzene]
A: 62.00 °C

Q: Try this compound next: C=CC(=O)OCCCC [butyl prop-2-enoate]
A: 49.00 °C

Q: Record: Cc1cc(C(C)(C)C)c(O)c(C(C)(C)C)c1 [2,6-ditert-butyl-4-methylphenol]
A: 127.00 °C

* * *

Lab note - cut at 30 °C for flash point: met if strictly below, not met if not.

compound: C[Si](C)(C)CN=[N+]=[N-] [(AZIDOMETHYL)TRIMETHYLSILANE]
cat: met
//
compound: C=CC(=O)OC[Si](OC)(OC)OC [ACRYLOXYMETHYLTRIMETHOXYSILANE]
cat: not met
//
compound: C[Si](C)(Cl)Cc1ccccc1 [BENZYLDIMETHYLCHLOROSILANE]
cat: not met
//
compound: CC(=O)[Si](C)(C)C [ACETYLTRIMETHYLSILANE]
cat: met
//
compound: C=CC(=O)OCCC[Si](O[Si](C)(C)C)(O[Si](C)(C)C)O[Si](C)(C)C [(3-ACRYLOXYPROPYL)TRIS(TRIMETHYLSILOXY)SILANE]
cat: not met

Q: In the record for C=CC(=O)OCCC[Si](OC)(OC)OC [(3-ACRYLOXYPROPYL)TRIMETHOXYSILANE] , is flash point less than 30 °C?
A: not met

Q: Check C=CC[Si](Cl)(Cl)Cl [ALLYLTRICHLOROSILANE] too.
A: not met

Q: Query C=CC(=O)OCCC[Si](C)(C)OC [(3-ACRYLOXYPROPYL)DIMETHYLMETHOXYSILANE] next
A: not met

Q: Entry C=CC[Si](C)(C)C [ALLYLTRIMETHYLSILANE] please
A: met

Q: Lookup CC(=O)O[Si](C)(C)C [ACETOXYTRIMETHYLSILANE]
A: met

Q: Next record, please: C=CCN[Si](C)(C)C [ALLYLAMINOTRIMETHYLSILANE]
A: met

Q: Entry C=CC[Si](C)(C)c1ccc(OC)cc1 [ALLYL(4-METHOXYPHENYL)DIMETHYLSILANE] please
A: not met

Q: Please give the result for C=CC[Si](C)(C)CCl [ALLYL(CHLOROMETHYL)DIMETHYLSILANE] too.
A: met

Q: Try this compound next: CCO[Si](CCOC(C)=O)(OCC)OCC [ACETOXYETHYLTRIETHOXYSILANE]
A: not met

Q: Query C[Si](C)(C)CCCN [3-AMINOPROPYLTRIMETHYLSILANE] next
A: not met

Q: Ok, now C=CC[Si](OCC)(OCC)OCC [ALLYLTRIETHOXYSILANE]
A: not met

Q: Please do the same for C=CC[Si](C(C)C)(C(C)C)C(C)C [ALLYLTRIISOPROPYLSILANE] as well.
A: not met

Q: What about this compound? CO[Si](OC)(OC)c1cccc(N)c1 [m-AMINOPHENYLTRIMETHOXYSILANE]
A: not met

Q: Now consider CC(=O)OCC[Si](C)(C)Cl [ACETOXYETHYLDIMETHYLCHLOROSILANE] and answer again.
A: not met
